Entry source: ChEMBL document CHEMBL3988442

tested on: Wolbachia pipientis; assay: Anti-Wolbachia Cell-Based Screen; format: functional; parameters: scale not given: in the data most compounds retested in dose-response had high values; settings: 5 µM
About 13,000 (27%) of roughly 48,000 compounds showed an effect of 50% or more. This is one part of the list.
The label depends only on Percent Effect: t if it is at least 30%, f if it is smaller.

MOLECULE	CLASS
Cc1cc(N2CCC(O)CC2)nc(C)n1	f
CC(C)N(C)C(=O)C1=NOC2(CCN(C(=O)NCc3cccnc3)C2)C1 (stereo not drawn)	f
Cc1cc(C(=O)N2CCN(C(=O)CC(C)C)[C@@H]3CS(=O)(=O)C[C@@H]32)no1	f

Decide: is the reported value of Percent Effect for `COCCCN1CCC(NC(=O)C2CC2)CC1` equal to or greater than 30%? f

Decide: is the reported value of Percent Effect for Cc1cc(N2CCC(O)CC2)nc(C2CCCN2C)n1 (stereo not drawn) equal to or greater than 30%? t

Decide: is the reported value of Percent Effect for Cc1cccc(-c2c[nH]c(C3CCCN3C(=O)c3cc(C)n[nH]3)n2)c1 (stereo not drawn) equal to or greater than 30%? f
